Source: ChEMBL document CHEMBL1201862

Record form. Attribute: GI50. Fill in for each entry.
- Tested on: TK-10
- protocol.notes: NCI tumour cell line growth inhibition, 48 h
Active and inactive are the calls of the source. Rule as the data show it: active = GI50 up to about 1.1 µM and inactive = higher.

{"columns": ["molecule", "endpoint.result"],
 "data": [
  ["O=C(NN=C1NCCCCN1)Nc1ccc(Cl)cc1", "> 100 µM (inactive)"],
  ["CCOC(=O)C1(C#N)C(C#N)(C#N)C1(C#N)C#N", "> 100 µM (inactive)"],
  ["C/C(CCn1[nH]c(=O)ccc1=O)=N\\O", "> 100 µM (inactive)"]
]}

For each entry beneath this line, provide reported GI50.
1. COc1ccc(-c2c(-c3ccccc3)c(C)nc3[nH]c(=S)[nH]c(=S)c23)cc1OC
2. O=C1c2cc(O)c(O)cc2O[C@H](c2ccc(O)c(O)c2)[C@H]1O

["45.7 µM (inactive)", "> 100 µM (inactive)"]

Required: GI50, one value per molecule below.
1. Brc1nc2c3ccccc3ncn2c1Br
2. O=C(C/C=C/c1ccccc1)c1ccccc1
3. CCC(C)[C@H]1C(=O)N=C(N)N1C(=O)OCc1ccccc1 (some centres not stated)
4. CN1CN(C2OC(CO)C(O)C2O)c2nc(N)[nH]c(=O)c21 (configuration not stated)
5. CC(C)OP(=O)(OC(C)C)C(C(C)C)N(C)/C(N)=N/C#N (configuration not stated)
6. CCOC(=O)NNC(=O)NCCNC(=O)NNC(=O)OCC

56.4 µM (inactive)
23.2 µM (inactive)
> 100 µM (inactive)
> 100 µM (inactive)
> 100 µM (inactive)
> 100 µM (inactive)

Batch: GI50 for all items listed.
1. S=C1NCCN1C(=S)Nc1ccccc1
2. Cc1ccccc1-n1c2nc(=O)n(C)c(=O)c-2nc2ccccc21
3. O=C(CCN1CCN2c3ccccc3CCC2C1)c1ccc(F)cc1 (configuration not stated)
4. C/C(=N\NC(=O)c1ccncc1)c1ccc2ccccc2c1O
5. CCN1CCC(O)(c2ccc(Oc3ccc(C)cc3)cc2)C(C(=O)c2ccc(Oc3ccc(C)cc3)cc2)C1 (configuration not stated)
6. COc1ccc(O)c(/C=N/NC(=S)N2CCCCC2)c1
7. C[C@@H](NC1CCC[C@@H]1O)c1ccccc1 (some centres not stated)
8. Cc1cc2c(cc1C(=O)CCC(=O)O)CC1(C2)Cc2cc(C)c(C(=O)CCC(=O)O)cc2C1

95.9 µM (inactive)
12.1 µM (inactive)
29.6 µM (inactive)
4.63 µM (inactive)
8.61 µM (inactive)
3.61 µM (inactive)
> 100 µM (inactive)
> 100 µM (inactive)

Your task in this section: give GI50 for each listed record.
1. CC1NCCc2c1[nH]c1cc(O)ccc21 (configuration not stated)
2. C/C(CC(O)(C(F)(F)F)C(F)(F)F)=N\NC(N)=O
3. CC(C)C(=O)OCN(C)c1nc(N(C)COC(=O)C(C)C)nc(N(C)COC(=O)C(C)C)n1

1: > 100 µM (inactive); 2: > 10 µM (inactive); 3: 85.7 µM (inactive)

* * *

- Test system: TK-10
- protocol.notes: NCI tumour cell line growth inhibition, 48 h
The source made the active and inactive calls. Cut-off read from the data, not from the text of the source: active = GI50 up to about 1.1 µM and inactive = higher.
Outcome (select one): 1.0 (active), 0.0 (inactive)

Solved entries (count: 3):
{"columns": ["molecule", "label.class"],
 "data": [
  ["COc1cccc(C2c3cc4c(cc3OC(N3CCCCC3)C2C)OCO4)c1O (stereo not drawn)", 0.0],
  ["Cc1nn(C(=O)c2ccccc2O)c2c1C(c1ccccc1O)SC(=N)N2 (stereo not drawn)", 0.0],
  ["Cc1ccc(C(=O)N/N=C2/C(=O)c3c4ccccc4cc4cccc2c34)cc1", 0.0]
]}

Hello, I am checking results. What call was entered for Clc1ccc(/C=C/c2nc(-c3ccc(Cl)cc3)cn3c2nc2ccccc23)cc1 ? 0.0

What did this assay record as the result for C[C@]12CCC3c4ccc(O)cc4CC[C@H]3C1CC(=O)N(CCN1CCCC1)C2=O (stereo partly drawn) ? 0.0

Tell me the recorded outcome of this test for CSc1c([S+](C)[O-])[nH]c2cc(Br)cc(Br)c12 (stereo not drawn) . 0.0

What outcome does the record of this test show for C/C(Cl)=N\OC(=O)Nc1ccccc1C(F)(F)F ? 0.0

Please indicate how the test categorized COc1cccc2cc(C)c(C(=O)c3ccccc3)nc12 . 0.0

Please share the test call associated with CCC(C)(O)c1cn(-c2ccc(Cl)cc2)nn1 (stereo not drawn) . 0.0

* * *

- Test system: COLO 205
- protocol.notes: NCI tumour cell line growth inhibition, 48 h
The source made the active and inactive calls. Cut-off read from the data, not from the text of the source: active = GI50 up to about 1.1 µM and inactive = higher.
Please provide measured GI50 for the entries that follow.

{"columns": ["compound", "GI50"],
 "data": [
  ["COc1nc2c(c(=O)[nH]1)N=C(c1ccc(Cl)cc1)CC(c1ccccc1)N2 (stereo not given)", "38.8 µM (inactive)"],
  ["Cc1c(N(C)C)ccc2c(=O)c3cccc(CC(=O)O)c3oc12", "> 100 µM (inactive)"],
  ["NC1=NS(=O)(=O)Nc2nc(-c3ccc([N+](=O)[O-])cc3)[nH]c21", "> 100 µM (inactive)"],
  ["COc1cc(-c2cc(-c3ccccc3)nc(-c3c(OC)ccc4c(C)cc(=O)oc34)c2)cc(OC)c1OC", "> 100 µM (inactive)"]
]}

Here is another compound to look at.
Data point: CNC(=O)CCC(NC(=O)OC(C)(C)C)C(=O)NC(Cc1ccc(NC(=O)CCCCC(C)=O)cc1)C(=O)NCC(=O)NC (stereo not given) ; GI50 = > 100 µM (inactive)

* * *

- System: M19-MEL
- protocol.notes: NCI tumour cell line growth inhibition, 48 h
Calls of active or inactive are those of the source. Rule as the data show it: active = GI50 up to about 1.1 µM and inactive = higher.
measurement.kind: GI50

{"columns": ["compound", "GI50"],
 "data": [
  ["CC(C)OP(=O)(OC(C)C)c1nc(-c2ccccc2)n(-c2ccc([N+](=O)[O-])cc2)n1", "> 100 µM (inactive)"],
  ["NS(=O)(=O)c1ccc(NC(=O)c2cccc3c(=O)c4ccccc4[nH]c23)cc1", "73.3 µM (inactive)"],
  ["[O-][S+]1c2ccccc2N=C(c2ccc(Cl)cc2)CC1c1cccs1 (centres undefined)", "17.7 µM (inactive)"],
  ["FC(F)(F)C1(Cl)C(Cl)(c2ccccc2)C1(Cl)c1ccccc1 (centres undefined)", "15.6 µM (inactive)"],
  ["O=C1CC2C(=O)N(Cc3ccccc3)C1C(S(=O)(=O)c1ccccc1)C2S(=O)(=O)c1ccccc1 (centres undefined)", "2.06 µM (inactive)"]
]}

Quick one: give me GI50 for each item below, same order please.
1. CC(=O)C1C(=O)C(=O)N(CCN2C(=O)C(=O)C(C(C)=O)C2=O)C1=O (centres undefined)
2. Cc1ccccc1-n1c2nc(=O)n(C)c(=O)c-2nc2ccccc21
3. CCOC(=O)CC1=Nc2ccccc2SC1
4. CC(C)[C@@H]1C=C(c2ccccc2)c2ccccc2C1C(C#N)(C#N)C(C)C (some centres undefined)

["> 100 µM (inactive)", "1.85 µM (inactive)", "> 100 µM (inactive)", "> 100 µM (inactive)"]

* * *

- Tested on: SK-OV-3
- protocol.notes: NCI tumour cell line growth inhibition, 48 h
Active and inactive are the calls of the source. Rule as the data show it: active = GI50 up to about 1.1 µM and inactive = higher.
Can you tell me GI50 for the items I'm about to list?

{"columns": ["molecule", "assay.target", "GI50"],
 "data": [
  ["C1CCNCC1.Oc1ncnc2[nH]cc(CN3CCCCC3)c12", "SK-OV-3", "> 100 µM (inactive)"]
]}

Dear colleague, could you please provide GI50 for the molecules listed below?
1. Cc1ccccc1-n1c2nc(=O)n(C)c(=O)c-2nc2ccccc21
2. NC(CSSCC(N)Cc1ccccc1)Cc1ccccc1 (stereo not drawn)
3. COC(=O)C1Cc2cc3c(cc2C1)CCC3
4. Brc1nc2c3ccccc3ncn2c1Br
5. CC(=O)O/C=C(/C=C/OC(C)=O)C(C/C=C(\C)C#CC=C(C)C)OC(C)=O (stereo not drawn)
6. CCOC(=O)Cc1[nH]c(C(=O)c2ccccc2)cc1C(=O)c1ccccc1
7. O=C(c1ccc2ccccc2c1O)N1CCCCC1
8. Cc1c(N(C)C)ccc2c(=O)c3cccc(CC(=O)O)c3oc12

36.9 µM (inactive)
85.7 µM (inactive)
> 100 µM (inactive)
38.5 µM (inactive)
> 100 µM (inactive)
> 100 µM (inactive)
> 100 µM (inactive)
> 100 µM (inactive)

Provide reported GI50 for each item, in the same order as listed.
1. FC(F)(F)c1nc2ccc3[nH]c4c(-c5ccccc5)nccc4c3c2[nH]1
2. O=C(O)CCN1C(=S)CSC1=S
3. O=C(NO)C12C3C4C1C1C2C3C41C(=O)NO (stereo not drawn)

1: > 100 µM (inactive); 2: > 100 µM (inactive); 3: > 100 µM (inactive)

* * *

- Tested on: MOLT-4
- protocol.notes: NCI tumour cell line growth inhibition, 48 h
Active and inactive are the calls of the source. Rule as the data show it: active = GI50 up to about 1.1 µM and inactive = higher.
measurement.kind: GI50

{"columns": ["compound", "GI50"],
 "data": [
  ["Cc1ccc(NC(=O)C(=O)C2NC(=S)NC2=O)c([N+](=O)[O-])c1 (centres undefined)", "> 100 µM (inactive)"],
  ["CCN(CC(=O)O)C(=O)c1cccnc1", "> 100 µM (inactive)"],
  ["CC(=O)OCC1OC(n2c(-c3ccccc3)c(/N=N/c3ccc(C)cc3)c(C)c(C#N)c2=S)C(OC(C)=O)C(OC(C)=O)C1OC(C)=O (centres undefined)", "3.67 µM (inactive)"]
]}

# evaluate next
Measured GI50, COC(=O)C1C2C=CC(C2)C1(C(=O)OC)[S+]([O-])CC12CCC(CC1O)C2(C)C (centres undefined) : > 100 µM (inactive)
